Molecular target: TBK1 (Homo sapiens)
Construct: His-tag; made in house; host or cells: Sf9 insect cells
Sequence (Q9UHD2 1-729): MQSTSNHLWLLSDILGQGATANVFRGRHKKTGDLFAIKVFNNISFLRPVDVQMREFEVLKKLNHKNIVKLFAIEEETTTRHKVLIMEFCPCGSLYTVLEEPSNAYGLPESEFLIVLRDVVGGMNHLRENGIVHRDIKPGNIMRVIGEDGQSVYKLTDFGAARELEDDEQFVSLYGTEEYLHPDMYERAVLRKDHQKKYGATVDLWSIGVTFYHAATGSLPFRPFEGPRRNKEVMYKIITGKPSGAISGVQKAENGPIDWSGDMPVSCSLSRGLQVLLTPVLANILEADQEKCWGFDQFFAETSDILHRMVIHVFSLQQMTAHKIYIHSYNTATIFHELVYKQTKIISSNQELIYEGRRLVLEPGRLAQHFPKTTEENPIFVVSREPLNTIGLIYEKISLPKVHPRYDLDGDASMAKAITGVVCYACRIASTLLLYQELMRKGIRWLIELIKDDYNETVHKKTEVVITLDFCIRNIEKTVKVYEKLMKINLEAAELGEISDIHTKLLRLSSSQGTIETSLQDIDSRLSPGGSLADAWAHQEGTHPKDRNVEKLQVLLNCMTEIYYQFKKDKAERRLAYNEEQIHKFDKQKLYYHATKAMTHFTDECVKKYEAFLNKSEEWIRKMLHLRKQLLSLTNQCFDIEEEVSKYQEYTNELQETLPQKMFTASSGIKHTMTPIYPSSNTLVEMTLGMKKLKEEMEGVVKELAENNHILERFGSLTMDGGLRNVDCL
Experiment: In-vitro TBK1 kinase assay ([γ33]ATP filter-plate)
Assay type: biochemical
Details: text bins; read-out: IC50 for inhibition of the kinase activity of TBK1
pIC50: −log10 of the molar value.
measured_metric: pIC50

These recorded examples may help you get a feel for the data.
N#Cc1cccc(-c2ccnc(Nc3cccc(NC(=O)NC4CCCC4)c3)n2)c1 | 7.00 to 8.00
C[C@H](O)C(=O)NCc1ccc(Nc2nccc(-c3ccc(OC4CCOCC4)c(C#N)c3)n2)cc1 | > 8.00
COc1ccc(Nc2nc(-c3ccc(OC4CCOCC4)c(C#N)c3)c3nc[nH]c3n2)cc1OC | 7.00 to 8.00

Recorded pIC50 for CN1CCC(NCc2cccc(Nc3nccc(-c4ccc(OC5CCOCC5)c(C#N)c4)n3)c2)CC1 , please?
> 8.00

Now the compound CS(=O)(=O)N1CCC(Oc2ccc(-c3ccnc(Nc4ccc(N5CCOCC5)cc4)n3)cc2C#N)C1 (centres unmarked)
7.00 to 8.00
